This collection of values is drawn from PubChem BioAssay.

molecular target: Torsin-1A (Homo sapiens) (UniProt O14656); experiment: torsin A binders from cell lysate, primary screen, small-molecule microarray, wild-type, 635/667 nm (AID 1149); conditions: COS7 hTOR1A-WT lysate, 635 nm fluorescence, higher = more signal
Sequence (O14656 whole entry, looked up): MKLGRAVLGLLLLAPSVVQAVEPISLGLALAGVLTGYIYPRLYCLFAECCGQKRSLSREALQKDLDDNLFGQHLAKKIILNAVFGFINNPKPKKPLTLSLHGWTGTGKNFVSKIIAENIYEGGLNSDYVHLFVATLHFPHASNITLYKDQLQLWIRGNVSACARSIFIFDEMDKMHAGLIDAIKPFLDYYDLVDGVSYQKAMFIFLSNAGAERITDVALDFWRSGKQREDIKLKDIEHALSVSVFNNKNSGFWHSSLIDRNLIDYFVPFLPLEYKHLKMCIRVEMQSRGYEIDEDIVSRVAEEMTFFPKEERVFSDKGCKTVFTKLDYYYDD
Would you mind telling me the reported composite z-score of each entry?

// known answers, use as guide
molecule: CC(C)[Si]1(C(C)C)OCc2cc(-c3ccc(-c4ccc(Cl)c(Cl)c4)o3)nc(CCc3ccccc3)c21
composite z-score: -0.696
--
molecule: CC1CC/C=C\[C@H]2OC34C=CCN(C(C)(C)C)C(=O)[C@H]3N(C(CO)C(C)C)C(=O)[C@@H]4C2C(=O)O1 (some centres undefined)
composite z-score: 0.0733
--
molecule: O=C(O)[C@H]1C[C@H]2C(=O)N[C@@H](Cc3ccccc3)C(=O)N2[C@H]1c1cccc(OCCO)c1
composite z-score: 1.42

Now consider the entry below.
Prompt line: Record request: composite z-score value, item [N-]=[N+]=NCc1ccccc1[C@@H]1OC(c2ccc(OCCCO)cc2)=N[C@]1(Cc1ccccc1N=[N+]=[N-])C(=O)NCCN1CCOCC1
Response line: 1.06

* * *

assay: small-molecule microarray binders of probe aDKK1, primary screen, biochemical, biotinylated probe, 635/667 nm fluorescence (AID 1099); conditions: higher = more signal;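 further: score merges 667nm spot fluorescence with signal to noise across triplicate slides; reference of the scale not given here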
Would you mind telling me the reported composite z-score of each entry?
Numbers only.

// known answers, use as guide
molecule: COC(=O)[C@@]1(Cc2ccccc2)[C@H]2c3cc(C(=O)N4CCCC4)n(CCSCCO)c3C[C@H]2CN1C(=O)c1ccccc1
composite z-score: 1.25
--
molecule: O=C1[C@@]23C=C(Br)[C@H](C[C@@H]2COC3)[C@@]12CO2
composite z-score: -0.419
--
molecule: CCOC(=O)C=Cc1ccccc1O
composite z-score: -0.0604
--
molecule: CCOC(=O)C[C@H]1[C@H](OC(=O)c2cc3ccccc3oc2=O)[C@@H](NC(=O)c2ccc3ccccc3c2)c2cc(OCCCO)ccc2N1C(=O)Cc1ccc(OC)cc1
composite z-score: -0.0385
--
molecule: C=C(COC)/C(=C/C[C@@H](OC(=O)c1ccncc1)c1ccccc1OCCO)c1cc(C(=O)OC)ccc1OC
composite z-score: -0.0241

Please report composite z-score for every entry that follows.
1. C=CCC(OC(C)=O)[C@@H]1[C@@H](N(Cc2ccc(-c3ccccc3)cc2)C(=O)Cc2ccc(F)cc2)c2cc(OCCCO)ccc2N1C(=O)Cc1ccc2ccccc2c1 (stereo not given in full)
2. COC(=O)[C@@]1(Cc2ccc(F)cc2)[C@H]2c3cc(C(=O)N(C)C)n(Cc4ccc(O)c(OC)c4)c3C[C@H]2CN1C(=O)c1ccccc1
3. CN1C=C(C(=O)OCCS(C)(=O)=O)C(C(=O)OCCS(C)(=O)=O)=CC(c2ccc(CO)cc2)=CC1c1cccs1 (stereo not given)
4. Cc1nc2cc(Br)ccc2c(=O)n1Cc1cccc(O)c1
5. CCOC(=O)C[C@H]1[C@H](OC(=O)c2ccc(C(=O)c3ccccc3)cc2)[C@@H](NC(=O)CC(C)C)c2cc(OCCCO)ccc2N1C(=O)Cc1ccc(OC)cc1

Response line:
1: -0.0697; 2: 0.0331; 3: 0.162; 4: -0.136; 5: 0.393

* * *

test: small-molecule microarray binders of probe aWnt5a, primary screen, biochemical, biotinylated probe, 635/667 nm fluorescence (AID 1113); details: higher = more signal;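 further: score merges 667 nm fluorescence intensity with signal-to-noise per printed feature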
parameter measured: composite z-score
Answers are plain numbers.

// known answers, use as guide
compound: COCCOC(=O)N1C(=O)[C@@]2(c3cc(C#CCC(C(=O)OC)C(=O)OC)ccc31)[C@H](c1ccc(OCCO)cc1)N1[C@H](c3ccccc3)[C@H](c3ccccc3)OC(=O)[C@H]1[C@@H]2C(=O)Nc1nc2ccccc2s1
composite z-score: -0.0202
//
compound: C=C[C@@H](C)[C@H](O)c1ccc(OCCO)cc1
composite z-score: -0.262

Please report composite z-score for every entry that follows.
1. O=c1cccc(-c2ccco2)o1
2. C=C(C(=O)CC[C@@H](OC(=O)c1ccccc1-c1ccccc1C(=O)O)c1ccccc1OCCO)C(C)C

Response line:
-0.0179
-0.0405

Please report composite z-score for every entry that follows.
1. [N-]=[N+]=Nc1ccccc1C[C@]1(C(=O)O)N=C(c2ccc(OCCCO)cc2)O[C@H]1c1ccccc1N=[N+]=[N-]
2. C=CCC(OC(C)=O)[C@@H]1[C@@H](N(Cc2ccc(-c3ccccc3)cc2)C(=O)Cc2ccc(F)cc2)c2cc(OCCCO)ccc2N1C(=O)Cc1ccc2ccccc2c1 (stereo partly drawn)

Response line:
0.0859
0.0495

Please report composite z-score for every entry that follows.
1. COC(=O)[C@@]1(Cc2ccc(F)cc2)[C@H]2c3cc(C(=O)N4CCCC4)n(C)c3C[C@H]2CN1C(=O)c1ccccc1
2. CCOC(=O)C=Cc1cc(F)ccc1O

Response line:
[0.122, -0.0462]
